targetOfAssay: Solute carrier family 2, facilitated glucose transporter member 1 (Homo sapiens) (UniProt P11166)
Sequence (P11166 whole entry): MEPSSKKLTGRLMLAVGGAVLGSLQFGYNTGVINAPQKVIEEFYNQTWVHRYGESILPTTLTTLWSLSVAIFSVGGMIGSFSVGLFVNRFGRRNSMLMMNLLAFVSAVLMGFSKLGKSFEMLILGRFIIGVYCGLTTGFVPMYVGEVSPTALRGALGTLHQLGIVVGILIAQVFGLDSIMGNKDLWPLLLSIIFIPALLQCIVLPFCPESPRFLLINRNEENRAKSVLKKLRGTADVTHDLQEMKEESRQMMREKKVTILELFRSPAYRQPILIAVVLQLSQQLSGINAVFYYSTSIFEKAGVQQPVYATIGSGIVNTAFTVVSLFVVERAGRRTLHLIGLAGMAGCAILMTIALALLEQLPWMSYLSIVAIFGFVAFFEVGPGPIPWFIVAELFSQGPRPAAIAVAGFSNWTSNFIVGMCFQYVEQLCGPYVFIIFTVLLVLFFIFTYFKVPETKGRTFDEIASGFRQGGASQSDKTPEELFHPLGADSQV
assayOverview: ST_JUDE_LEISH: Cytotoxicity at 2uM final concentration against transgenic Leishmania Mexicana promastigotes LmGLUT1 that are glucose transport deficient and complemented with the human glucose transporter GLUT1. Activity is measured by DNA content using SYBR green in vitro
Assay type: functional
Readings of inhibition for the listed molecules

| molecule | readoutUnits | inhibition |
| --- | --- | --- |
| O=C(NCCCCN1CCC(c2ccc(-c3ccco3)cc2)CC1)c1ccc(NC(=O)c2ccc(Cl)cc2)cc1 | % | 2.25 |
| Cc1cccc(-c2ccc(NC(=O)C3CCN(Cc4cccc(O)c4)CC3)cc2)c1 | % | 0.07 |
| COc1ccc2nccc(N(C)CC3(O)CCN(CC(O)c4ccc5c(c4)NC(=O)CS5)CC3)c2n1 (centres undefined) | % | -0.29 |
| CC(C)OC(=O)c1ccc(NC(=O)N[C@@H](Cc2ccc(O)cc2)C(=O)NC2CCC(CCN3C4CCC3c3ccccc34)CC2)cc1 (some centres undefined) | % | 3.08 |
| CNC(=O)c1ccccc1Nc1nc(Nc2ccc(CCN3CCN(C)CC3)cc2)ncc1Cl | % | 74.6 |
| COc1ccc(CCNC(=O)c2cc(C)ccc2O)cc1-c1ccc(C(C)(C)C)cc1 | % | 4.36 |
| CC(C)(C)c1ccc2[nH]c(-c3ccc(C(=O)NCCCc4ccccc4)cc3)nc2c1 | % | 2.42 |
| CS(=O)(=O)N(c1ccccc1)c1cc(C(=O)N[C@@H](Cc2ccccc2)[C@H](O)CNC2CC2)cc(N2CCCC2=O)c1 | % | 4.45 |
| Fc1cccc(C=NN=c2cc[nH]c3ccccc23)c1 | % | 9.03 |

###

targetOfAssay: Hexose transporter 1 (Plasmodium falciparum) (UniProt O97467)
assayOverview: ST_JUDE_LEISH: Cytotoxicity at 2uM final concentration against transgenic Leishmania Mexicana promastigotes LmPfHT that are glucose transport deficient and complemented with the Plasmodium falciparum hexose transporter. Activity is measured by DNA content using SYBR green in vitro
Format: functional
parameterMeasured: inhibition (%)

| molecule | targetOfAssay | recordedMeasurement |
| --- | --- | --- |
| CCOc1cc(C(=O)Nc2ccc3nc(N4CCN(C)CC4)cc(C)c3c2)cc(OCC)c1OCC | Hexose transporter 1 (Plasmodium falciparum) (UniProt O97467) | 3.76 |
| CNCCNCc1ccc(-c2cccc(-c3nc4cc(F)ccc4[nH]3)c2)cc1 | Hexose transporter 1 (Plasmodium falciparum) (UniProt O97467) | 3.78 |
| CCc1cn2c3c(cc(C(=O)N[C@@H](Cc4ccccc4)[C@H](O)CNCc4cccc(C)c4)cc13)N(C)S(=O)(=O)CC2 | Hexose transporter 1 (Plasmodium falciparum) (UniProt O97467) | 0.76 |
| COc1ccc(CN(C)C(=O)CCNS(=O)(=O)c2ccc3c(c2)OCCCO3)cc1F | Hexose transporter 1 (Plasmodium falciparum) (UniProt O97467) | 6.84 |
| CCNC(=O)CCc1cccc(Br)c1 | Hexose transporter 1 (Plasmodium falciparum) (UniProt O97467) | -1.52 |
| c1ccc2c(Nc3ccc(Oc4ccc(Nc5c6ccccc6nc6ccccc56)cc4)cc3)c3ccccc3nc2c1 | Hexose transporter 1 (Plasmodium falciparum) (UniProt O97467) | 0.88 |
| Cn1nccc1C(=O)NCCNCc1cccc(-c2cccc(-c3nc4cc(C(F)(F)F)ccc4[nH]3)c2)c1 | Hexose transporter 1 (Plasmodium falciparum) (UniProt O97467) | 1.83 |
| CC(=O)NC1=NC(C)(C)N(OCc2ccc(Cl)c(Cl)c2)C(NC(C)=O)=N1 | Hexose transporter 1 (Plasmodium falciparum) (UniProt O97467) | -0.25 |
| Cc1cc(OCC2CCN(c3ncc(C(=O)Nc4ccccc4)cc3Cl)CC2)ccc1F | Hexose transporter 1 (Plasmodium falciparum) (UniProt O97467) | -2.28 |
| COc1cc(C(=O)Nc2cccc(-c3nc4ccccc4[nH]3)c2)cc(OC)c1OC | Hexose transporter 1 (Plasmodium falciparum) (UniProt O97467) | 1.94 |
| CNCCNCc1cccc(-c2ccc(-c3nc4ccccc4[nH]3)cc2)c1 | Hexose transporter 1 (Plasmodium falciparum) (UniProt O97467) | 0.67 |
| CN1CCC(NCc2cccc(-c3nn(C)c4nc(NC5CCCC5)ncc34)c2)CC1 | Hexose transporter 1 (Plasmodium falciparum) (UniProt O97467) | 1.84 |
| O=C(/C=C/c1ccc(Cl)c(Cl)c1)N1CCCC(CCCN2CCC(c3c[nH]c4ccccc34)CC2)C1 (centres undefined) | Hexose transporter 1 (Plasmodium falciparum) (UniProt O97467) | 3.51 |
| COc1cccc(C(=O)C2CC2CN(C)CC(O)c2cc(C)c(OC)cc2C)c1 (centres undefined) | Hexose transporter 1 (Plasmodium falciparum) (UniProt O97467) | -1.24 |
| Cc1cc(NCCC(=O)Nc2ccccc2)nc(NCCc2ccccc2)n1 | Hexose transporter 1 (Plasmodium falciparum) (UniProt O97467) | 1.77 |
| CC(C)[C@@H](C(=O)NCc1cccc(C(F)(F)F)c1)N1C(=O)CCC1C(=O)Nc1ccc([N+](=O)[O-])cc1 (some centres undefined) | Hexose transporter 1 (Plasmodium falciparum) (UniProt O97467) | 1.67 |
| CN(C)CCOc1ccc(-c2cc(-c3ccc(Cl)c(O)c3)c(-c3ccnc(N)n3)o2)cc1 | Hexose transporter 1 (Plasmodium falciparum) (UniProt O97467) | 2.73 |
| Cc1ccc(Oc2ccc(NC(=O)CNc3ccccc3N3CCCC3=O)cc2)cc1 | Hexose transporter 1 (Plasmodium falciparum) (UniProt O97467) | 6.14 |
| N#Cc1c(-c2ccccc2)cn2c1[nH]c(=O)c1ccccc12 | Hexose transporter 1 (Plasmodium falciparum) (UniProt O97467) | 2.37 |
| CC(=O)Nc1nc(C(=O)Nc2ccc(-c3cccc(-c4nc5cc(F)ccc5[nH]4)c3)cc2)cs1 | Hexose transporter 1 (Plasmodium falciparum) (UniProt O97467) | 2.89 |
| CN(C)C(=O)c1ccc(CN(Cc2ccc(OC(C)(C)C)cc2)Cc2ccc3c(c2)OCCO3)cc1 | Hexose transporter 1 (Plasmodium falciparum) (UniProt O97467) | 2.04 |
| Cn1nc(-c2ccc(NC(=O)Nc3ccc4ccccc4c3)c(F)c2)c2cnc(NCCN3CCOCC3)nc21 | Hexose transporter 1 (Plasmodium falciparum) (UniProt O97467) | 4.79 |
| O=C(NCCCCN1CCN(c2cccc3c2CCCC3)CC1)c1ccc(NC(=O)c2ccc(Cl)cc2)cc1 | Hexose transporter 1 (Plasmodium falciparum) (UniProt O97467) | 1.45 |
| N=C(N)Nc1nc(-c2cccc(NC(=O)NCc3cccc4ccccc34)c2)cs1 | Hexose transporter 1 (Plasmodium falciparum) (UniProt O97467) | -0.38 |
| CCCC(=O)Nc1ccc(OCCCN(Cc2cccc(C(F)(F)F)c2)c2ccc(C#N)c(C(F)(F)F)c2)cc1 | Hexose transporter 1 (Plasmodium falciparum) (UniProt O97467) | 2.43 |
| Cc1cc(Nc2ccccc2)nc(Nc2ccccc2)n1 | Hexose transporter 1 (Plasmodium falciparum) (UniProt O97467) | 8.33 |
| CC(=O)NCCNc1nccc(N2CCc3ncnc(Nc4ccc(OCc5ccccn5)c(Cl)c4)c3C2)n1 | Hexose transporter 1 (Plasmodium falciparum) (UniProt O97467) | 1.71 |
| CC1CCc2c(C(=O)Nc3c(F)cc(F)cc3Br)csc2C1 (centres undefined) | Hexose transporter 1 (Plasmodium falciparum) (UniProt O97467) | 0.02 |
| CCCc1cc(NC2CCN(C)CC2)nc(Nc2cccc(OC)c2)n1 | Hexose transporter 1 (Plasmodium falciparum) (UniProt O97467) | 6.18 |
| COc1ccc(S(=O)(=O)N2CCOCC2)cc1NC(=O)c1cc2ccccc2o1 | Hexose transporter 1 (Plasmodium falciparum) (UniProt O97467) | 3.19 |
| CCOC(=O)N1CCN(CCCCNc2c3ccc(Cl)cc3nc3ccc(OC)cc23)CC1 | Hexose transporter 1 (Plasmodium falciparum) (UniProt O97467) | 9.69 |
| CCOC(=O)N1NC(=O)N(c2ccccc2)C1(c1ccccc1)c1ccccc1 | Hexose transporter 1 (Plasmodium falciparum) (UniProt O97467) | 1.19 |
| Cc1cc(N(CCO)CCCN2CCCCC2)nc(Nc2ccc(Cl)cc2)n1 | Hexose transporter 1 (Plasmodium falciparum) (UniProt O97467) | 1.35 |
| CN=C(S)NN=C(C)c1ccccn1 | Hexose transporter 1 (Plasmodium falciparum) (UniProt O97467) | -4.43 |
| COc1ccc2nccc([C@@H](O)CN3CCC(NCc4ccc5c(c4)NC(=O)C(C)(C)O5)CC3)c2c1 | Hexose transporter 1 (Plasmodium falciparum) (UniProt O97467) | 8.24 |
| Cc1ccc(NC(=O)c2cccc(CN3CCCN(Cc4cccc(O)c4)CC3)c2)cc1 | Hexose transporter 1 (Plasmodium falciparum) (UniProt O97467) | 0.65 |
| Fc1ccc(CNc2nc(-c3ccc(F)c(C(F)(F)F)c3)n(-c3cccc(C(F)(F)F)c3)n2)cc1 | Hexose transporter 1 (Plasmodium falciparum) (UniProt O97467) | 5.8 |
| CN(CCCc1c[nH]c2ccccc12)CCC1CCC(NC(=O)/C=C/c2ccc(Cl)c(Cl)c2)CC1 (centres undefined) | Hexose transporter 1 (Plasmodium falciparum) (UniProt O97467) | 2.63 |
| COc1ccc2nccc([C@H](O)CN3CCC(NCc4ccc5c(c4C)OCCO5)CC3)c2n1 | Hexose transporter 1 (Plasmodium falciparum) (UniProt O97467) | 59.7 |
